- targetUnderTest: SF3b complexes (Homo sapiens, UniProt O75533+Q7RTV0)
- Construct: endogenous in cells; host or cells: Nuclear extracts; A HeLa S3 extract preparation is described for the in vitro splicing assay
- testProtocol: Scintillation proximity assay (SPA) with [3H]-labelled pladienolide probe
- Type: binding
- measurementContext: SF3B1 (WT); geometric mean; read-out: SPA-ATS GMean IC50 (nM) SF3B1 (WT)
Mark yes (1) for IC50 under 20 nM, no (0) if at or over.

## Task In plain terms, does C/C(=C\c1cc(F)cc(N2CCOCC2=O)c1)[C@H]1OC(=O)C[C@H](O)CC[C@H](C)[C@@H](OC(=O)N2CCN(C)CC2)/C=C/[C@@H]1C come in under 20 nM for IC50?
## Result yes (1)

## Task In plain terms, does C/C(=C\c1cccc(S(=O)(=O)N2CCNCC2)c1)[C@H]1OC(=O)C[C@H](O)CC[C@H](C)[C@@H](OC(=O)N2CCN(C)CC2)/C=C/[C@@H]1C come in under 20 nM for IC50?
## Result no (0)

## Task In plain terms, does C/C(=C\c1cccc2c1c(C)nn2C)[C@H]1OC(=O)C[C@H](O)CC[C@H](C)[C@@H](OC(=O)N2CCN(C)CC2)/C=C/[C@@H]1C come in under 20 nM for IC50?
## Result no (0)

## Task In plain terms, does CC(=O)N1CCC(n2cnc3c(F)cc(/C=C(\C)[C@H]4OC(=O)C[C@H](O)CC[C@H](C)[C@@H](OC(=O)N5CCN(C)CC5)/C=C/[C@@H]4C)cc32)CC1 come in under 20 nM for IC50?
## Result no (0)

## Task In plain terms, does C/C(=C\c1cc(F)cc(N2CCOCC2)c1)[C@H]1OC(=O)C[C@H](O)CC[C@H](C)[C@@H](OC(=O)NCCN(C)C)/C=C/[C@@H]1C come in under 20 nM for IC50?
## Result yes (1)
